# tested_target: SARS-CoV-2 RBD (RBD-2) (SARS-CoV-2)
# protocol_summary: flow, HeLa-ACE2, mAb:RBD=4:1
quantity_name: MFI (RBD binding to cell surface)

Query MFI (RBD binding to cell surface) for L12.bP10G07 (antibody, V domains shown, human IgG1) VH: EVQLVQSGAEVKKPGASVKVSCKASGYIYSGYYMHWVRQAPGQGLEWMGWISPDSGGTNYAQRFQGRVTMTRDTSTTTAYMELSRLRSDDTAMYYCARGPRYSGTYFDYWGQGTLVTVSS VL: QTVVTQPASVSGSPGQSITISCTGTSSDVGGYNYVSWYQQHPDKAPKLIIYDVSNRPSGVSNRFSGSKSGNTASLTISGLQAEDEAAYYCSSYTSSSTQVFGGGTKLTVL
5710
